- assay-method-text: Parallel artificial membrane permeability assay (PAMPA)
- Type: in vitro ADME
- settings: read-out: […] permeation coefficient
measured-parameter: Papp (×10⁻⁶ cm/s)
Please give a number only; it is taken to be in ×10⁻⁶ cm/s.

Form field Papp, entry CO[C@@H](Cc1ccc(OCCc2nc(-c3ccccc3)oc2C)c2ccsc12)C(=O)O [aleglitazar] : 6

* * *

For each entry below, report its IC50 value.
- target-system: CYP2D6 (Homo sapiens)
- Sequence (P10635 whole entry): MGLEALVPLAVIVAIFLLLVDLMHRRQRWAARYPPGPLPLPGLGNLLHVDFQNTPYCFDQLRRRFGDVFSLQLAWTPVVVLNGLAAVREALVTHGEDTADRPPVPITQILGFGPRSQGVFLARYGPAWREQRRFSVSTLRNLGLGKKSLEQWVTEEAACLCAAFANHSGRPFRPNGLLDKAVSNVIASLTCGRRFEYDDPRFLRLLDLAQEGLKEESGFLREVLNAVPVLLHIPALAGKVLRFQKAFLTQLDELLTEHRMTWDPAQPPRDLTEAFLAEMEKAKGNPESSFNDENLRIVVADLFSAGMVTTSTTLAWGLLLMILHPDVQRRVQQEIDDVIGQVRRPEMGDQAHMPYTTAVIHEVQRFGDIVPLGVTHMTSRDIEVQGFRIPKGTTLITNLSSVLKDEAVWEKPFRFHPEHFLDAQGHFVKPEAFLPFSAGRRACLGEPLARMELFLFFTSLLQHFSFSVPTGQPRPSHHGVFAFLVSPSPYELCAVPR

Form field IC50, entry Cc1nnc(-c2ccc(OCCCOc3ccc(CCC(=O)O)c(F)c3)c(F)c2)s1 [Compound 1] : > 20 µM

Form field IC50, entry COc1ccc(Oc2ccc3ncn(CCOc4ccc(CCC(=O)O)cc4)c3c2)cc1 [Compound 2] : > 20 µM

* * *

- Test system: P-glycoprotein (Pgp)
- assay-method-text: P-glycoprotein (Pgp) efflux assay
- Format: in vitro ADME
- settings: mouse, PAMPA; read-out: PgP Transport mouse permeability
For each entry below, report its Papp value.
Please give a number only; it is taken to be in ×10⁻⁶ cm/s.

Form field Papp, entry Cc1nnc(-c2ccc(OCCCOc3ccc(CCC(=O)O)c(F)c3)c(F)c2)s1 : 1.5

Form field Papp, entry COc1ccc(Oc2ccc3ncn(CCOc4ccc(CCC(=O)O)cc4)c3c2)cc1 : 6

* * *

For each entry below, report its pIC50 value.
pIC50: −log10 of the molar value.

Item Cc1nnc(-c2ccc(OCCCOc3ccc(CCC(=O)O)c(F)c3)c(F)c2)s1 [Compound 1] ; assay system CYP1A2 (Homo sapiens); pIC50 reported as < 4.70

Item COc1ccc(Oc2ccc3ncn(CCOc4ccc(CCC(=O)O)cc4)c3c2)cc1 [Compound 2] ; assay system CYP1A2 (Homo sapiens); pIC50 reported as < 4.70

* * *

- target-system: UniProt:P37231
- Sequence (P37231 238-503 limits assumed): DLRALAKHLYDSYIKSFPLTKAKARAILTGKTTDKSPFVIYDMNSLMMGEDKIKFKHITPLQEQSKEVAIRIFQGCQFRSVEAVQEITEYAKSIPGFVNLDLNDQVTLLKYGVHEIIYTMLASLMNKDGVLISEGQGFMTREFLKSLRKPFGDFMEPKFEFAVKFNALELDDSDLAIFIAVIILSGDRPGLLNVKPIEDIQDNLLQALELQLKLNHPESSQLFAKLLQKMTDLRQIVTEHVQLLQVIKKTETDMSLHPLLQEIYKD
measured-parameter: pKd
Give only the number. pKd is defined as minus log10 of concentration in molar units.

Form field pKd, entry Cc1nnc(-c2ccc(OCCCOc3ccc(CCC(=O)O)c(F)c3)c(F)c2)s1 : 6.10
